Assign IC50 to each entry below.
Test system: HT-29 colon adenocarcinoma cells
Experiment: Antiproliferative activity (NCI procedure, sulforhodamine B), HT-29
Format: cell-based, human
Details: Homo sapiens, HT-29; Table 8; unit inferred, tested 781 nM to 100 μM, 48 h
One number for each entry, in µM.

Examples from the recorded data:
CC(C)(C)c1ccc(NC(=S)NC2CCCC2)cc1 28.8
S=C(Nc1cccc(C2CCCCC2)c1)NC1CC1 12.7
S=C(Nc1ccc(C2CCCCC2)cc1)NC1CC1 30.8

Switching to the query record.
Reported IC50 for S=C(NCC1CCC1)Nc1cccc(I)c1 was 27
